tested on: Oryza sativa (ORYSA); assay type: in vivo; conditions: crop plant compatibility, 320 g/ha, effect in comparison to untreated controls
Listed here are molecules together with their documented Post-emergence action against ORYSA in %.
Provide only the numeric value, understood in %.

Molecule	Post-emergence action against ORYSA in % (%)
C[C@@H](Oc1nn(-c2ccccn2)c(-c2ccc(Cl)nc2)c1Br)C(=O)O [Example I-240]	0
COC(=O)CNC(=O)CSc1nn(-c2ccccn2)c(-c2cncnc2)c1Br [Example I-65]	0
CCOC(=O)COc1nn(-c2ccccn2)c(-c2ccc(Cl)nc2)c1Cl [Example I-241]	0
O=C(O)COc1nn(-c2ccnc(Cl)c2)c(-c2ccc(F)nc2)c1Br [III-23]	20
CCOC(=O)COc1nn(-c2ccnc(F)c2)c(-c2ccc(F)nc2)c1Br [III-01]	0

What value of Post-emergence action against ORYSA in % has been reported for the following molecule? COC(=O)CCOC(=O)[C@@H](C)Oc1nn(-c2ccccn2)c(-c2ccc(Cl)nc2)c1Br [Example I-244]
0

What value of Post-emergence action against ORYSA in % has been reported for the following molecule? O=C(O)COc1nn(-c2ncccc2C(F)(F)F)c(-c2ccc(F)nc2)c1Br [Example I-310]
20

What value of Post-emergence action against ORYSA in % has been reported for the following molecule? COC(=O)CNC(=O)COc1nn(-c2cccnc2C)c(-c2cncc(F)c2)c1Br [II-37]
0

What value of Post-emergence action against ORYSA in % has been reported for the following molecule? CCOC(=O)COc1nn(-c2ccncc2)c(-c2ccc(F)nc2)c1Br [III-08]
0

---

tested on: Lolium rigidum (LOLRI); assay: Pre-emergence herbicidal action against LOLRI; type: in vivo; conditions: dosage 80 g/ha
Listed here are compounds together with their documented Pre-emergence action against LOLRI in %.
Provide only the numeric value, understood in %.

What value of Pre-emergence action against LOLRI in % has been reported for the following compound? COC(=O)C(C)COC(=O)C(C)Oc1nn(-c2ccccn2)c(-c2ccc(F)nc2)c1Cl (centres unmarked)
90

What value of Pre-emergence action against LOLRI in % has been reported for the following compound? COC(=O)CNC(=O)COc1nn(-c2ccccn2)c(-c2ccc(F)nc2)c1Cl
80

What value of Pre-emergence action against LOLRI in % has been reported for the following compound? CCOC(=O)C(C)Oc1nn(-c2ccccn2)c(-c2ccc(F)nc2)c1C(F)(F)F (centres unmarked)
80

What value of Pre-emergence action against LOLRI in % has been reported for the following compound? CCOC(=O)[C@@H](C)Oc1nn(-c2ncccc2F)c(-c2ccc(F)nc2)c1C1CC1
100

What value of Pre-emergence action against LOLRI in % has been reported for the following compound? COC(=O)C(C)NC(=O)[C@@H](C)Oc1nn(-c2ccccn2)c(-c2ccc(F)nc2)c1Cl (some centres unmarked)
100

What value of Pre-emergence action against LOLRI in % has been reported for the following compound? COCCOCCOC(=O)COc1nn(-c2ncccc2F)c(-c2ccc(F)nc2)c1Br
80

What value of Pre-emergence action against LOLRI in % has been reported for the following compound? CC(Oc1nn(-c2ccccn2)c(-c2ccc(F)nc2)c1C(F)(F)F)C(=O)O (centres unmarked)
100

---

system: Setaria viridis (SETVI); experiment: Post-emergence herbicidal action against SETVI; format: in vivo; conditions: dosage 80 g/ha
Result Type: Post-emergence action against SETVI in % (%)
Provide only the numeric value, understood in %.

Look over these answered cases.
Compound	Result Unit	Post-emergence action against SETVI in %
COCCOC(=O)COc1nn(-c2cccc(C)n2)c(-c2ccc(F)nc2)c1Cl [Example I-279]	%	80
CCOC(=O)COc1nn(-c2ccccn2)c(-c2ccc(F)nc2)c1Br [Example I-02]	%	80
CCOC(=O)COc1nn(-c2nc(F)ccc2F)c(-c2ccc(F)nc2)c1C1CC1 [Example I-348]	%	80

What value of Post-emergence action against SETVI in % has been reported for the following compound? COC(=O)[C@@H](C)Oc1nn(-c2ncccc2F)c(-c2ccc(F)nc2)c1C1CC1 [Example I-307]
90

What value of Post-emergence action against SETVI in % has been reported for the following compound? COC(=O)[C@@H](C)Oc1nn(-c2nc(F)ccc2F)c(-c2ccc(F)nc2)c1C1CC1 [Example I-298]
90

What value of Post-emergence action against SETVI in % has been reported for the following compound? CC(NC(=O)[C@@H](C)Oc1nn(-c2ccccn2)c(-c2ccc(F)nc2)c1Cl)C(=O)O (some centres unmarked) [Example I-350]
80

What value of Post-emergence action against SETVI in % has been reported for the following compound? C[C@@H](Oc1nn(-c2nc(F)ccc2F)c(-c2cncc(F)c2)c1C1CC1)C(=O)O [Example I-180]
80

What value of Post-emergence action against SETVI in % has been reported for the following compound? CC(C)N(C)S(=O)(=O)NC(=O)COc1nn(-c2ncccc2F)c(-c2ccc(F)nc2)c1Br [Example I-53]
80
